ASSAYED SYSTEM: Serine/threonine-protein kinase Chk2 (Homo sapiens, UniProt O96017)
Sequence (O96017 whole entry): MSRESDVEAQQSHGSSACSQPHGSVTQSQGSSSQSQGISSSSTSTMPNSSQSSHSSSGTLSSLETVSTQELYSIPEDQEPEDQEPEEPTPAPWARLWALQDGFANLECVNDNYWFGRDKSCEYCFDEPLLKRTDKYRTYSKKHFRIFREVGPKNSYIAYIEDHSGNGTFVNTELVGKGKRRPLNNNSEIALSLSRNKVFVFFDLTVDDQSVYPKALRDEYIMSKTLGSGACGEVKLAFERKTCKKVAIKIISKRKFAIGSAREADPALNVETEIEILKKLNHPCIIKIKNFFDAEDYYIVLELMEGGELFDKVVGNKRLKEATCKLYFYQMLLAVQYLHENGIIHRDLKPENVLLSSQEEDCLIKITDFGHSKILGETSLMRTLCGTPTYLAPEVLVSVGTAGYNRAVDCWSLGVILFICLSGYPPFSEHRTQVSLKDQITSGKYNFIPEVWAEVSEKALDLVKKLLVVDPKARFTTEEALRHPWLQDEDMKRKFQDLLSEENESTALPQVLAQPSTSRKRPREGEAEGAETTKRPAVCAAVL
EXPERIMENT SUMMARY: Inhibition of CHK2 by DELFIA assay
pIC50: −log10 of the molar value.
Collected pIC50 values appear next to each entry.
ASSAY ENDPOINT: pIC50

> print(dat)
                           smiles.structure  assay.endpoint  obs.value
1   OCc1cccc(-c2cn3c(-c4cn[nH]c4)cnc3cn2)c1           pIC50       5.77
2     c1n[nH]cc1-c1cnc2ncc(-c3cn[nH]c3)n2c1           pIC50       5.17
3  c1ccc2c(-c3cnc4cnc(-c5cn[nH]c5)cn34)c[nH]c2c1           pIC50       5.89
4   OCc1ccc(-c2cn3c(-c4cn[nH]c4)cnc3cn2)cc1           pIC50       5.66
5   NCc1ccc(-c2cn3c(-c4cn[nH]c4)cnc3cn2)cc1           pIC50       6.92
